Data origin, for the record: ChEMBL document CHEMBL4689842

Measured Population Tubulin-Different-Phenotype (%), listed per entry.
- Test system: HEK-293T
- Assay Notes: Multiplex assay against HEK293T;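 also: share of the cells with healthy nuclei that show this phenotype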
- Type: toxicity, cell-based
- Measurement Conditions: human, 12 h, 10 µM, compound concentration 10 uM, replicate 1
Endpoint Label: Population Tubulin-Different-Phenotype (%)

INSERT INTO measurements (compound, reported_value) VALUES
  ('Cc1ccc2nc(NCCN)c3ncc(C)n3c2c1.O=C(O)C(F)(F)F.O=C(O)C(F)(F)F', 14),
  ('CCOc1cc2ncc(C#N)c(Nc3ccc(OCc4ccccn4)c(Cl)c3)c2cc1NC(=O)/C=C/CN(C)C [NERATINIB]', 23),
  ('COc1ccc(-c2ccc3c(N4CCOCC4)nc(N4C[C@@H](C)O[C@@H](C)C4)nc3n2)cc1CO [Ku-0063794]', 12),
  ('CCc1cccc(CC)c1NC(=O)c1nn(C)c2c1CCc1cnc(Nc3ccc(C(=O)NC4CCN(C)CC4)cc3OC(F)(F)F)nc1-2', 98);

----------
Measured Total Cell Count, listed per entry.
- Tested on: U2OS
- Assay Notes: Multiplex assay against U2OS
- Assay type: toxicity, cell-based
- Measurement Conditions: human, 12 h, 1 µM, compound concentration 1 uM, replicate 2
Endpoint Label: Total Cell Count

INSERT INTO results (smiles_str, reported_value) VALUES
  ('CCc1cccc(CC)c1NC(=O)c1nn(C)c2c1CCc1cnc(Nc3ccc(C(=O)NC4CCN(C)CC4)cc3OC(F)(F)F)nc1-2', 51),
  ('S=C(NCCCc1c[nH]cn1)NCCCN(Cc1ccc(Cl)c(Cl)c1)c1ccc(Br)cn1', 79),
  ('Cl.O=c1c2cccn2c2ccccc2n1CCCN1CCC(c2ccc(Cl)cc2)CC1', 119),
  ('CCN1CCN(Cc2ccc(Nc3ncc(F)c(-c4cc(F)c5nc(C)n(C(C)C)c5c4)n3)nc2)CC1.CS(=O)(=O)O', 73),
  ('COc1cccc2cc(-c3nc([C@H]4CC[C@H](C(=O)O)CC4)n4ncnc(N)c34)[nH]c12', 117),
  ('CCn1cc(-c2ccnc3[nH]c(-c4cccc(CN(C)C)c4)cc23)c(-c2ccc(NC(=O)N(C)C)cc2)n1', 97),
  ('O=C(Cc1ccc(-c2ccc(OCCN3CCOCC3)cc2)cn1)NCc1ccccc1', 108),
  ('CCCS(=O)(=O)Nc1ccc(F)c(C(=O)c2c[nH]c3ncc(Cl)cc23)c1F', 153);

----------
- System: Fibroblast
- Assay Notes: Multiplex assay against human fibroblast
- Format: toxicity, cell-based
- Measurement Conditions: 12 h, 10 µM, compound concentration 10 uM, replicate 1
Endpoint Label: Population Membrane Permeable-Phenotype (%)

INSERT INTO assay_data (compound, unit_symbol, reported_value) VALUES
  ('Cc1ccc(C(=O)Nc2cccc(C(F)(F)F)c2)cc1Nc1nc(-c2cccnc2)nc2c1cnn2C', '%', 34),
  ('O=C(Nc1cccnn1)N1CCC(=Cc2cccc(Oc3ccc(C(F)(F)F)cn3)c2)CC1', '%', 6),
  ('CCN1CCN(c2ccc(Nc3cc(N(C)C(=O)Nc4c(Cl)c(OC)cc(OC)c4Cl)ncn3)cc2)CC1 [INFIGRATINIB]', '%', 5),
  ('CCn1cc(-c2ccnc3[nH]c(-c4cccc(CN(C)C)c4)cc23)c(-c2ccc(NC(=O)N(C)C)cc2)n1 [GSK-1070916]', '%', 5),
  ('Cc1cn(-c2cc(NC(=O)c3ccc(C)c(Nc4nccc(-c5cccnc5)n4)c3)cc(C(F)(F)F)c2)cn1 [NILOTINIB]', '%', 4),
  ('Cl.Oc1ccc2c3c1O[C@H]1c4[nH]c5c(c4C[C@@]4(O)[C@@H](C2)N(CC2CC2)CC[C@]314)C[C@@]1(O)[C@H]2Cc3ccc(O)c4c3[C@@]1(CCN2CC1CC1)[C@H]5O4', '%', 25),
  ('C=CCn1c(=O)c2cnc(Nc3ccc(N4CCN(C)CC4)cc3)nc2n1-c1cccc(C(C)(C)O)n1 [ADAVOSERTIB]', '%', 8),
  ('CCOc1cc(C(=O)N2CCC(N3CCN(C)CC3)CC2)ccc1Nc1ncc2c(n1)N(C1CCCC1)c1ccccc1C(=O)N2C', '%', 20),
  ('COc1ccc(S(=O)(=O)N(CCO)c2ccccc2CN(C)C/C=C/c2ccc(Cl)cc2)cc1.O=P(O)(O)O', '%', 14);

----------
- Tested on: U2OS
- Assay Notes: Multiplex assay against U2OS
- Assay type: toxicity, cell-based
- Measurement Conditions: human, 12 h, 10 µM, compound concentration 10 uM, replicate 1
Population Apoptotic (%) vs 50%: less than gives t; not less than gives f.

INSERT INTO results (molecule, class_label) VALUES
  ('O=C1N/C(=N/c2ccccc2F)S/C1=C\c1ccc(C(=O)O)cc1', 't'),
  ('CNc1cc(Oc2cc(C(=O)Nc3cc(N4CCN(C)CC4)cc(C(F)(F)F)c3)ccc2C)ncn1', 'f'),
  ('O=C(Nc1cccnn1)N1CCC(=Cc2cccc(Oc3ccc(C(F)(F)F)cn3)c2)CC1', 'f'),
  ('CNC(=O)c1ccc(Nc2nc(OC3CCCC3)c3c(-c4ccc5nc(C)oc5c4)c[nH]c3n2)c(OC)c1', 't'),
  ('Cc1ccc2nc(NCCN)c3ncc(C)n3c2c1.O=C(O)C(F)(F)F.O=C(O)C(F)(F)F', 't'),
  ('CN1CCC(=C2c3ccccc3CC(=O)c3sccc32)CC1.O=C(O)/C=C/C(=O)O [KETOTIFEN FUMARATE]', 'f'),
  ('COc1ccc(-c2ccc3c(N4CCOCC4)nc(N4C[C@@H](C)O[C@@H](C)C4)nc3n2)cc1CO', 'f'),
  ('Cc1ccc(C(=O)Nc2cccc(C(F)(F)F)c2)cc1Nc1nc(-c2cccnc2)nc2c1cnn2C', 'f'),
  ('COc1ccc(S(=O)(=O)N(CCO)c2ccccc2CN(C)C/C=C/c2ccc(Cl)cc2)cc1.O=P(O)(O)O', 'f');

----------
- Test system: U2OS
- Assay Notes: Multiplex assay against U2OS
- Assay type: toxicity, cell-based
- Measurement Conditions: human, 48 h, 10 µM, compound concentration 10 uM, replicate 2
Endpoint Label: Population Pyknosed Nuclei (%)

INSERT INTO results (compound, tested_system, endpoint_label, unit_symbol, reported_value) VALUES
  ('O=C(Nc1ccc(-c2ccnc(Nc3ccc(N4CCOCC4)cc3)n2)cc1)[C@@H]1CCCN1', 'U2OS', 'Population Pyknosed Nuclei (%)', '%', 20),
  ('Cc1ccc(C(=O)Nc2cccc(C(F)(F)F)c2)cc1Nc1nc(-c2cccnc2)nc2c1cnn2C', 'U2OS', 'Population Pyknosed Nuclei (%)', '%', 53),
  ('Cc1cc(C)c(S(=O)(=O)N(Cc2ccc(-c3cccc(S(C)(=O)=O)c3)cc2)Cc2ccc(C(F)(F)F)o2)c(C)c1', 'U2OS', 'Population Pyknosed Nuclei (%)', '%', 10),
  ('Cc1cn(-c2cc(NC(=O)c3ccc(C)c(Nc4nccc(-c5cccnc5)n4)c3)cc(C(F)(F)F)c2)cn1', 'U2OS', 'Population Pyknosed Nuclei (%)', '%', 9),
  ('CN1C2CCC1CC(OC(c1ccc(F)cc1)c1ccc(F)cc1)C2.Cl (stereo not given)', 'U2OS', 'Population Pyknosed Nuclei (%)', '%', 7);

----------
- System: U2OS
- Assay Notes: Incucyte cell viability with U2OS; also: filed as whole numbers so only -1 and 0 and 1 occur
- Type: toxicity, cell-based
- Measurement Conditions: human, 6 h, 10 µM, compound concentration 10 uM, replicate number 2, timepoint 6 hours
Measured Growth Rate, listed per entry.
Endpoint Label: Growth Rate

INSERT INTO assay_data (compound, tested_system, reported_value) VALUES
  ('c1ccc(Nc2nc3c(s2)CCCc2[nH]ncc2-3)nc1', 'U2OS', 0),
  ('CC(=O)c1c(NS(C)(=O)=O)c2cc(-c3ccc(Cl)cc3)c(-c3ccc(Cl)cc3Cl)nc2n(C)c1=O', 'U2OS', 1),
  ('COc1cc(N2CCN(C)CC2)ccc1Nc1ncc2c(n1)N(C)c1ccccc1C(=O)N2C', 'U2OS', 0),
  ('CCc1cccc(CC)c1NC(=O)c1nn(C)c2c1CCc1cnc(Nc3ccc(C(=O)NC4CCN(C)CC4)cc3OC(F)(F)F)nc1-2', 'U2OS', 0),
  ('N#Cc1c[nH]c2c(C(=O)N3CCN(CCc4ccc(F)cc4)CC3)cccc12', 'U2OS', 0),
  ('O=C1NCN(c2ccccc2)C12CCN(CC1COc3ccccc3O1)CC2 (stereo not drawn)', 'U2OS', 1),
  ('Cl.O=C([C@@H](Cc1cccc(C(F)(F)F)c1)NS(=O)(=O)c1cc(F)c2c(c1)CCNC2)N1CCCC1', 'U2OS', 1),
  ('C[C@]12CCC(=O)C=C1CC[C@@H]1[C@@H]2[C@@H](O)C[C@]2(C=O)[C@@H](C(=O)CO)CC[C@@H]12', 'U2OS', 1);
